Reported pIC50 values follow for various compounds
- system: αvβ3 integrin (Homo sapiens, UniProt P05106+P06756)
- Construct: All purified integrins were purchased from R&D Systems (MN, USA)
- assay-overview: Competitive binding ELISA, αvβ3 integrin
pIC50: −log10 of the molar value. Where a SMILES comes first, the peptide text is derived from it. The star is where a group is joined. Benzoyl(4-F) = O=C(c1ccc(F)cc1)*

For the record CC(C)C[C@H](NC(=O)[C@H](Cc1ccc(O)cc1)NC(=O)[C@@H](NC(=O)[C@H](CC(C)C)NC(=O)[C@H](CC(=O)O)NC(=O)CNC(=O)[C@@H](NC(=O)c1ccc(F)cc1)C(C)C)[C@@H](C)O)C(=O)N[C@@H](CCCCN)C(=O)N[C@@H](CCC(N)=O)C(=O)N[C@@H](CCCCN)C(=O)N[C@H](C(=O)N[C@@H](C)C(=O)N[C@@H](CCCNC(=N)N)C(=O)N[C@H](C(N)=O)[C@@H](C)O)C(C)C [P1Q] , what value of pIC50 is listed for αvβ3 integrin (Homo sapiens, UniProt P05106+P06756)?
< 4.00

For the record CC(C)C[C@H](NC(=O)[C@H](Cc1ccc(O)cc1)NC(=O)[C@@H](NC(=O)[C@H](CC(C)C)NC(=O)[C@H](CC(=O)O)NC(=O)CNC(=O)[C@@H](NC(=O)c1ccc(F)cc1)C(C)C)[C@@H](C)O)C(=O)N[C@@H](CCCCN)C(=O)N[C@@H](CCCNC(=N)N)C(=O)N[C@@H](CCCCN)C(=O)N[C@@H](C)C(=O)N[C@H](C(=O)N[C@H](C(=O)N[C@@H](CCC(N)=O)C(N)=O)C(C)C)[C@@H](C)O [P1Q-Scrb] ({Benzoyl(4-F)}-VGDLTYLKRKATVQ-NH2) , what value of pIC50 is listed for αvβ3 integrin (Homo sapiens, UniProt P05106+P06756)?
< 4.00

Now for another entry.
For the record CC(C)C[C@H](NC(=O)[C@H](Cc1ccc(O)cc1)NC(=O)[C@@H](NC(=O)[C@H](CC(C)C)NC(=O)[C@H](CC(=O)O)NC(=O)CNC(=O)[C@@H](NC(=O)c1ccc(F)cc1)C(C)C)[C@@H](C)O)C(=O)N[C@@H](CCCCN)C(=O)N[C@@H](CCCCN)C(=O)N[C@@H](CCCCN)C(=O)N[C@H](C(=O)N[C@@H](C)C(=O)N[C@@H](CCCNC(=N)N)C(=O)N[C@H](C(N)=O)[C@@H](C)O)C(C)C [P1K-b] , what value of pIC50 is listed for αvβ3 integrin (Homo sapiens, UniProt P05106+P06756)?
< 4.00
